tested on: cultured human mast cells (CHMC); assay: CHMC low cell density IgE activation: tryptase assay; format: cell-based; details: low cell density; read-out: CHMC anti-IgE Tryptase
The following compounds are shown together with reported IC50 values.
All answers are understood in nM, so give the number only.

Would you please look over these solved cases?
compound=Cc1cc(C)cc(Nc2ncc(F)c(Nc3ccc4c(n3)NC(=O)C(C)(C)O4)n2)c1 uom=nM datavalue=276
compound=Nc1cccc(Nc2nc(Nc3ccc(OC(F)(F)F)c(Cl)c3)ncc2F)n1 uom=nM datavalue=2270
compound=COc1ccc(Nc2ncc(F)c(Nc3ccc4c(n3)NC(=O)CO4)n2)cc1Cl uom=nM datavalue=163
compound=Fc1cnc(Nc2ccc3cc[nH]c3c2)nc1Nc1ccc(Cl)c(Cl)c1 uom=nM datavalue=421
compound="COc1cc(Nc2ncc(F)c(Nc3ccc4c(c3)NC(=O)C(C)(C)O4)n2)cc(OC)c1 [Compound R927073]" uom=nM datavalue=66.8

// recorded IC50 for O=C1COc2ccc(Nc3nc(Nc4cc(Cl)cc(Cl)c4)ncc3F)nc2N1 : 20600

// recorded IC50 for COc1ccc(Nc2nc(Nc3ccc4c(cnn4C)c3)ncc2F)cc1OC : 696

// recorded IC50 for CN(C)C(=O)C1Cc2cc(Nc3ncc(F)c(Nc4ccc(OC(F)(F)F)c(Cl)c4)n3)ccc2O1 (stereo not drawn) : 671

// recorded IC50 for CNC(=O)COc1cccc(Nc2ncc(F)c(Nc3ccc(OC)c(Cl)c3)n2)c1 : 199

// recorded IC50 for CNC(=O)COc1cccc(Nc2ncc(F)c(Nc3ccc(OC(C)C)c(Cl)c3)n2)c1 : 284

====

tested on: differentiated human macrophages; assay: Macrophage activation, IgG stimulation: TNF; format: cell-based; settings: stimulus (IgG or LPS) not given; read-out: Monocytes/Macrophage TNF IC50
recordedMetric: IC50 (nM)
All answers are understood in nM, so give the number only.

compound="COc1ccc(Nc2ncc(F)c(Nc3ccc4c(c3)NC(=O)[C@@H](C)O4)n2)cc1Cl [Compound R909322]" recordedmetric=IC50 datavalue=1260

Param item: CNC(=O)COc1cccc(Nc2ncc(F)c(Nc3ccc(OC)c(Cl)c3)n2)c1 [Compound R926891] ; param system: differentiated human macrophages; output IC50: 1140

Param item: Cn1ncc2ccc(Nc3ncc(F)c(Nc4ccc5c(c4)NC(=O)C(C)(C)O5)n3)cc21 [Compound R940366] ; param system: differentiated human macrophages; output IC50: 86

Param item: OCCCn1ncc2cc(Nc3ncc(F)c(Nc4ccc(Cl)c(Cl)c4)n3)ccc21 [Compound R935391] ; param system: differentiated human macrophages; output IC50: 1160

====

target: Syk kinase (Homo sapiens); assay: Syk kinase biochemical fluorescence polarization assay; details: isolated Syk kinase, fluorescence polarization, 4 uM ATP
recordedMetric: IC50 (nM)
All answers are understood in nM, so give the number only.

smilesstructure=COc1ccc(Nc2ncc(F)c(Nc3cccc(N)n3)n2)cc1Cl datavalue=312

Continue with the molecule presented below.
// recorded IC50 for CNC(=O)COc1cccc(Nc2ncc(F)c(Nc3cc(C)c(O)c(Cl)c3)n2)c1 : 59

====

biological target: Syk kinase (Homo sapiens, UniProt P43405); experiment: Syk kinase biochemical fluorescence polarization assay; settings: isolated Syk kinase, fluorescence polarization, 4 uM ATP
recordedMetric: log10 of IC50 (log10 of the value in nM)
Quick note: numbers are log10 of IC50, with nM as the unit.

Would you please look over these solved cases?
molecule=COc1c(Cl)cc(Nc2ncc(F)c(Nc3ccc4c(c3)NC(=O)C(F)(F)O4)n2)cc1Cl datavalue=2.20
molecule=COC(=O)N1CCN(c2ccc(Nc3ncc(F)c(Nc4ccc5c(n4)NC(=O)C(C)(C)O5)n3)cc2)CC1 datavalue=2.71

Continue with the molecule presented below.
// recorded log10 of IC50 for COc1cc(Nc2ncc(F)c(Nc3ccc4c(n3)NC(=O)CO4)n2)cc(OC)c1 : 0.85
